targetOrTestSystem: BChE (Homo sapiens, UniProt P06276)
Sequence (P06276 29-602): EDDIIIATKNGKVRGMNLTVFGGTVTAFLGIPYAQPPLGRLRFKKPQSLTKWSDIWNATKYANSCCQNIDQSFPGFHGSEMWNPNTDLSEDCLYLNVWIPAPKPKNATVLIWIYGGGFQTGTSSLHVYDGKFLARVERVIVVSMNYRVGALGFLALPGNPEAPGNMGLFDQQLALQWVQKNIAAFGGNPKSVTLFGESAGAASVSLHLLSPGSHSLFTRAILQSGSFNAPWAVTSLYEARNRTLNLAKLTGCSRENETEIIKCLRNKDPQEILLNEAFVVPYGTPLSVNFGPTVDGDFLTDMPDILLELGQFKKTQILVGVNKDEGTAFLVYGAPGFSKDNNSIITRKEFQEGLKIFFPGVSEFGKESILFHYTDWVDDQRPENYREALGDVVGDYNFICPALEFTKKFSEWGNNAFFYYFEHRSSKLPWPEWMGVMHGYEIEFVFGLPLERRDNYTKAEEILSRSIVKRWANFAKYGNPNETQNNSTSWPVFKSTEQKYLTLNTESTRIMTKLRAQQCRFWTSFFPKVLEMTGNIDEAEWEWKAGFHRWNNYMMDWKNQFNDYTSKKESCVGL
methodNotes: biochemical
setupConditions: 250 μg/ml; read-out: % BChE inhibition
Use 1.0 when the recorded inhibition at 250 µg/mL is no lower than 90%; use 0.0 when it is lower.

Worked set:
compound	targetOrTestSystem	cat
CCC(CCC(C)C1CCC2C3CC=C4CC(OC5OC(CO)C(O)C(O)C5O)CCC4(C)C3CCC12C)C(C)C [Compound 3, β-Sitosterol-3-O-β-D-Glucopyranoside]	BChE (Homo sapiens, UniProt P06276)	1.0
C=C(C)[C@@H]1CC[C@]2(C(=O)O)CC[C@]3(C)[C@H](CC[C@@H]4[C@@]5(C)CC[C@H](O)C(C)(C)[C@@H]5CC[C@]43C)[C@@H]12 [Compound 7, 3β-Dihydroxylup-20(29)-ene-28-oic Acid]	BChE (Homo sapiens, UniProt P06276)	1.0
COc1cc(C(=O)CCO)ccc1O	BChE (Homo sapiens, UniProt P06276)	1.0
O=c1cc(-c2ccccc2)oc2cc(O)cc(O)c12 [Compound 9, 5,7-Dihydroxyflavone]	BChE (Homo sapiens, UniProt P06276)	0.0

Continue with the compound presented below.
Please check the record C=C(C)[C@@H]1CC[C@]2(CO)CC[C@]3(C)[C@H](CC[C@@H]4[C@@]5(C)CC[C@H](O)C(C)(C)[C@@H]5CC[C@]43C)[C@@H]12 [Compound 6, 3β, 28-Dihydroxylup-20(29)-ene] and state if its inhibition at 250 µg/mL is at or above 90%.
1.0
